experiment: self-splicing fitness, log relative to wild type (ln ratio); higher = more splicing; Tetrahymena group I intron in knt gene, E. coli kanamycin selection, DiMSum; sequences stand for … in CUCUCU…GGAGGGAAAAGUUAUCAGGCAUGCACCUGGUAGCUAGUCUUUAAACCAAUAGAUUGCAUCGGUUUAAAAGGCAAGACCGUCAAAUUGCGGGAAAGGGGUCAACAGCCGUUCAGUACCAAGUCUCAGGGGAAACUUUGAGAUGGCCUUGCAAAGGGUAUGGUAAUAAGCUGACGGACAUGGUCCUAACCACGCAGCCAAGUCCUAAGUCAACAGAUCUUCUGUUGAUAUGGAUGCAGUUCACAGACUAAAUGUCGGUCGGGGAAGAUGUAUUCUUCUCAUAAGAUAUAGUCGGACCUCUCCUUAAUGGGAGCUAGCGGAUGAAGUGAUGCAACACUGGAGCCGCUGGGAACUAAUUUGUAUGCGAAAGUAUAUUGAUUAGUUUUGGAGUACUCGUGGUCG; settings: 37 °C;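 note: selection with 25 µg/mL kanamycin versus none on LB agar overnight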
parameter-measured: self-splicing fitness (ln)
Respond numerically, and do not add a unit to the figure.

>  <primary-sequence>
GGUGAGCAAUAUUACGAAAU

>  <number>
-2.78

$$$$
>  <primary-sequence>
AGAGAGCAAUAUUACGGCCU

>  <number>
-2.58

$$$$
>  <primary-sequence>
CGCAAGCAAUAUUACGUGAC

>  <number>
-2.5

$$$$
>  <primary-sequence>
GAAUAGCAAUAUUACGGCGA

>  <number>
-0.3

$$$$
>  <primary-sequence>
GGAGAGCAAUAUUACGUUCG

>  <number>
-0.35

$$$$

// query self-splicing fitness (ln) value for entry GGCAAGCAAUAUUACGAGAC
// result -1.2

// query Same thing, different sequence: UUCCAGCAAUAUUACGUUAC
// result -2.57

// query Same thing, different sequence: UUCCAGCAAUAUUACGACUA
// result -0.117

// query Same thing, different sequence: AACCAGCAAUAUUACGAAUU
// result -0.314

// query Same thing, different sequence: AGCGAGCAAUAUUACGGCUC
// result -2.06

// query Same thing, different sequence: UGCAAGCAAUAUUACGUAGU
// result -2.42

---

test: self-splicing fitness, log relative to wild type (ln ratio); higher = more splicing; Tetrahymena group I intron in knt gene, E. coli kanamycin selection, DiMSum; sequences stand for … in CUCUCU…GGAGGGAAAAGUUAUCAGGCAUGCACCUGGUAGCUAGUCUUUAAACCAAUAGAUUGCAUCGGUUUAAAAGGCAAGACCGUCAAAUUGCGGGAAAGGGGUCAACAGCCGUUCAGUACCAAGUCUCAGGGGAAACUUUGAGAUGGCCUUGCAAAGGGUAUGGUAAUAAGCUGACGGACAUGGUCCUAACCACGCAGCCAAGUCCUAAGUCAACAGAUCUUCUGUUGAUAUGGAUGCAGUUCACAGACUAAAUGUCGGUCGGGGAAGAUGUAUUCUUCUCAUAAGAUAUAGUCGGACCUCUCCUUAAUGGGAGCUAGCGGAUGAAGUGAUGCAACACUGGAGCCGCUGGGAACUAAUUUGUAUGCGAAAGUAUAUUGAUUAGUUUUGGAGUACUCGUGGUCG; settings: 37 °C
Parameter: self-splicing fitness (ln). Scope: all listed entries.
Respond numerically, and do not add a unit to the figure.

>  <primary-sequence>
AAGUAGCAAUAUUACGGAAA

>  <number>
-1.84

$$$$
>  <primary-sequence>
CUAGAGCAAUAUUACGAUUU

>  <number>
-1.48

$$$$
>  <primary-sequence>
AGCAAGCAAUAUUACGGUUA

>  <number>
0.127

$$$$
>  <primary-sequence>
CUCCAGCAAUAUUACGUUCG

>  <number>
-2.39

$$$$
>  <primary-sequence>
UGAGAGCAAUAUUACGUUCA

>  <number>
-0.794

$$$$

Next, consider the following sequence.
// query self-splicing fitness (ln) value for entry AGAAAGCAAUAUUACGUUCA
// result 0.14

Ref: the supplement of paper PMC7877785
